# TGI per entry
Tested on: 786-0 renal
Protocol details: NCI tumour cell line growth inhibition, 48 h

| Molecule | TGI |
| --- | --- |
| CCCCSSC(=S)N(CC)CC | > 100 µM |
| CC1CN=C(N(C)C(=O)Nc2ccc(Cl)cc2)S1 (stereo unspecified) | > 100 µM |
| C=C1[C@@H](OC(C)=O)[C@H]2[C@@H](OC(C)=O)[C@@](C)(OC(C)=O)C[C@]2(OC(C)=O)C(=O)[C@@H](C)/C=C/C(C)(C)C(=O)C[C@H]1OC(C)=O | > 100 µM |
| CCN(CC)CCn1c(=O)c2ccccc2n2c3c(=O)n(C)c(=O)n(C)c3nc12 | 5.43 µM |
| Cc1cc(I)cc(CN(C)CCN(C)C)c1O | > 100 µM |
| O=C(C(Br)C(Br)c1ccccc1)C(Br)C(Br)c1ccccc1 (stereo unspecified) | 2.21 µM |
| CCC(/C=C(C)/C=C/C(=O)c1c(O)c(-c2ccc(O)cc2)c[nH]c1=O)CO (stereo unspecified) | 20.6 µM |
| COc1ccc(CN2CCc3c(Sc4ccccc4)nc(N)nc3C2=O)c(OC)c1 | > 100 µM |
| Cn1cnc([N+](=O)[O-])c1Sc1nc2ncccc2[nH]1 | > 100 µM |
| Cc1ccc(NC(=O)CC/C(CC(=O)C(C)(C)C)=N/Nc2nnc(C)n2N)cc1C | > 100 µM |
| COC(=O)c1sc(=O)n(-c2ccccc2)c1SCc1ccccc1 | > 100 µM |
| O=C1c2ccccc2C(=O)N1CCn1nc(-c2ccccc2)cc(-c2ccccc2)c1=O | > 100 µM |
| O=[N+]([O-])c1cc([N+](=O)[O-])c(N2CCCC2)cc1NN=C(c1ccc(O)cc1)c1ccc(O)cc1 | 19.8 µM |
| N=C1N(c2ccccc2)C(=S)C(=Nc2ccccc2)N1c1ccccc1 | 22.2 µM |
| CC(=O)OCC1OC(OC2CCCC[Si](c3ccccc3)(c3ccccc3)O2)C(OC(C)=O)C(OC(C)=O)C1OC(C)=O (stereo unspecified) | > 100 µM |
| [N-]=[N+]=NC1=CC(=O)c2cccc3cccc1c23 | > 100 µM |
| CCCn1c2c(c3ccccc3c1=O)C(=O)c1cc3c(cc1-2)OCO3 | > 100 µM |
| Cn1cc(C2=C(c3cn(C)c4cc(C(=O)O)ccc34)C(=O)NC2=O)c2ccccc21 | > 25 µM |
| CC(=O)OCC1OC(NC(=S)CCSc2nc3ccccc3c(=O)n2-c2ccccc2)C(OC(C)=O)C(OC(C)=O)C1OC(C)=O (stereo unspecified) | > 100 µM |
| OCCCNCC(O)c1ccc(OCc2ccccc2)c(OCc2ccccc2)c1 (stereo unspecified) | 14.3 µM |
| O=[N+]([O-])c1cccc2nc3ccccc3c(NCCO)c12 | 0.0021 µM |
| O=CC(NC(=O)N(CCCl)N=O)C(O)C(O)C(O)CO (stereo unspecified) | 593 µM |
| Cc1nnc([S-])o1.[Au+].c1ccc([PH+](c2ccccc2)c2ccccc2)cc1 | 3 µM |
| CC(SC(=S)Nc1cccc(F)c1)C(=O)O (stereo unspecified) | > 100 µM |
| CC1=C(C(=O)Nc2ccc(Cl)c(Cl)c2)C(c2ccccc2Cl)NC(=S)N1 (stereo unspecified) | 20 µM |
| O=c1ccc(N=Nc2ccccc2)ccc1Cl | 13.6 µM |
| CNCCCNc1c2cc(OC)ccc2nc2cccc([N+](=O)[O-])c12 | 0.306 µM |
| CN=C(NC#N)N(Cc1ccccc1)Cc1ccccc1 | > 100 µM |
| CC1=C(C#N)C2C(=C(C)N1)C(N)=Nc1ccccc12 (stereo unspecified) | > 100 µM |
| Cc1nn(-c2ccccc2)c(-n2ccnc2)c1/C=N/Nc1nc(-c2ccc(Cl)c(Cl)c2)cs1 | 13.3 µM |
| O=C(NNC(=O)C1CCN(S(=O)(=O)c2ccc(-c3ccccc3)cc2)CC1)c1ccc(C(F)(F)F)cc1 | 34.1 µM |
| O=C1C=CC(=O)N1n1c(Cc2ccccc2)n[nH]c1=O | > 100 µM |
| COc1ccc(N2C(=O)C3c4[nH]c5ccc(OC)cc5c4C4CCC(C(C)C)CC4C3C2=O)cc1 (stereo unspecified) | > 55.2 µM |
| Nc1[nH]c(=O)nc2c1cnn2Cc1ccccc1 | > 100 µM |
| COc1c(-c2nc3nc(N4CCN(C)CC4)ccc3[nH]2)cc(OC)c2c1nc(CO)n2C | > 100 µM |
| COc1ccc2c(c1)CC[C@@H]1[C@@H]2CC[C@]2(C)C(c3ccsc3)=C(/C=C/C(=O)c3ccccc3)C[C@@H]12 | > 100 µM |
| CN(C(=O)c1cccs1)C(=S)N1CCN(c2ccccn2)CC1 | > 100 µM |
| CN1CCN(Cc2ccc(NC(=O)c3cnc(F)c(C#Cc4cnc(N)c5ncccc45)c3)cc2C(F)(F)F)CC1 | 7.86 µM |
| CCOC(=O)Cn1c(=O)n(C)c(=O)c2[nH]cnc21 | > 100 µM |
| COC(=O)C(Cc1c[nH]c2ccccc12)NC(=O)C(Cc1c[nH]c2ccccc12)NC(=O)OCc1ccccc1 (stereo unspecified) | 29.7 µM |
| Cc1ccc2nc3n(c2c1)C(c1c(F)cccc1F)SC3 (stereo unspecified) | > 100 µM |
